This collection of values is drawn from the kinase profiling compilation of Christmann-Franck et al. (2016).

# Test target: UniProtKB P51817
# Sequence (P51817 whole entry, looked up): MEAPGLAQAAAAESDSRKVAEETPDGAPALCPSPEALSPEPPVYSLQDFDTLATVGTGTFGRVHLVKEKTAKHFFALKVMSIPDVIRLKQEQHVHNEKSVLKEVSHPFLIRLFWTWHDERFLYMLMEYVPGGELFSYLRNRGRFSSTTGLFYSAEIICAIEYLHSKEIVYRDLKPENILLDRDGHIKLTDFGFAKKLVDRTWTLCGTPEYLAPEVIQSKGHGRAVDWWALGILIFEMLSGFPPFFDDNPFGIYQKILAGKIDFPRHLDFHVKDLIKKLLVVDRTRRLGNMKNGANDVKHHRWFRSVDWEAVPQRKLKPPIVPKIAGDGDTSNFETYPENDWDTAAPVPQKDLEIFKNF
# Assay text: radiometric filter-binding kinase assay, Kinase HotSpot
# Condition info: compound 0.5 µM; ATP 10 µM
Please provide measured residual activity for the entries that follow.

residual activity in this record for C[C@@H]1CCN(C(=O)CC#N)C[C@@H]1N(C)c1ncnc2[nH]ccc12 : 110%

residual activity in this record for Ic1cccc(CSc2nnc(-c3ccncc3)o2)c1 : 78.2%

residual activity in this record for CN(C)c1ccc(/C=C2\C(=O)Nc3ccccc32)cc1 : 104%

residual activity in this record for Fc1ccc(-c2nc3n(c2-c2ccncc2)CCS3)cc1 : 97.6%

residual activity in this record for CO[C@@H]1[C@H](N(C)C(=O)c2ccccc2)C[C@H]2O[C@]1(C)n1c3ccccc3c3c4c(c5c6ccccc6n2c5c31)C(=O)NC4 : 55.4%

residual activity in this record for Cc1cncc2cccc(S(=O)(=O)N3CCCN(C(=O)CN)C[C@H]3C)c12 : 54.2%

residual activity in this record for CC(C)(C)c1cc(C=C(C#N)C#N)cc(Br)c1O : 102%

residual activity in this record for COc1cc2ncnc(Nc3ccc(Oc4ccccc4)cc3)c2cc1OC : 95.2%

residual activity in this record for N#C/C(=C\c1ccc(O)c(O)c1)C(=O)NCc1ccccc1 : 99.6%

residual activity in this record for CN(C)S(=O)(=O)c1ccc2c(c1)/C(=C/c1cc3c([nH]1)CCCC3)C(=O)N2 : 98.1%

residual activity in this record for COc1ccc(C(=O)Nc2sc3c(c2C(N)=O)CCCC3)cc1OC : 101%
